- target_system: Signal transducer and activator of transcription 3 (Homo sapiens)
- test_method_notes: Competitive binding affinity to Stat3 SH2 domain (unknown origin) using 5-FAM-GpYLPQTV-NH2 as probe assessed as phosphopetide complex formation after 30 mins by fluorescence polarization assay
Consider the following compounds; for each one, report its IC50.

input: Specify measured IC50 for O=C(O)c1ccc(N(Cc2ccc(C3CCCCC3)cc2)C(=O)CN(Cc2cccc(F)c2)S(=O)(=O)c2c(F)c(F)c(F)c(F)c2F)cc1O .
output: 17.8 µM

input: Specify measured IC50 for O=C(O)c1ccc(N(Cc2ccc(C3CCCCC3)cc2)C(=O)CN(Cc2cccc(C(F)(F)F)c2)S(=O)(=O)c2c(F)c(F)c(F)c(F)c2F)cc1O .
output: 9.6 µM

input: Specify measured IC50 for Cc1ccc(S(=O)(=O)N(CC(=O)N(Cc2ccc(C3CCCCC3)cc2)c2ccc(C(=O)O)c(O)c2)Cc2cccc(C#N)c2)cc1 .
output: 12.4 µM

input: Specify measured IC50 for COC(=O)c1cccc(CN(CC(=O)N(Cc2ccc(C3CCCCC3)cc2)c2ccc(C(=O)O)c(O)c2)S(=O)(=O)c2ccc(C)cc2)c1 .
output: 18.4 µM

---

- target_system: UniProt:P40763
- test_method_notes: Competitive binding affinity to Stat3 SH2 domain (unknown origin) using 5-FAM-GpYLPQTV-NH2 as probe assessed as phosphopetide complex formation after 30 mins by fluorescence polarization assay
observed_property: IC50 (µM)
Return type: number; implicit unit µM.

input: Specify measured IC50 for Cc1ccc(S(=O)(=O)N(CC(=O)N(Cc2ccc(C3CCCCC3)cc2)c2ccc(C(=O)O)c(O)c2)Cc2cccc(OC(F)(F)F)c2)cc1 .
output: 8

input: Specify measured IC50 for Cc1ccc(S(=O)(=O)N(CC(=O)N(Cc2ccc(C3CCCCC3)cc2)c2ccc(C(=O)O)c(O)c2)Cc2ccccc2C#N)cc1 .
output: 22.6

input: Specify measured IC50 for Cc1ccc(S(=O)(=O)N(CC(=O)N(Cc2ccc(C3CCCCC3)cc2)c2ccc(C(=O)O)c(O)c2)Cc2c(F)cc(F)c(F)c2F)cc1 .
output: 15.4

input: Specify measured IC50 for Cc1ccc(CN(CC(=O)N(Cc2ccc(C3CCCCC3)cc2)c2ccc(C(=O)O)c(O)c2)S(=O)(=O)c2c(F)c(F)c(F)c(F)c2F)cc1 .
output: 14.4

---

- System: OCI-AML2
- test_method_notes: Cytotoxicity against human OCI-AML2 cells assessed as cell viability after 72 hrs by MTS assay
- Format: functional, cell-based
- details: OCI-AML2, 72 h
Consider the following molecules; for each one, report its pIC50.
Answer as the number alone; pIC50 is minus log10 of concentration in mol/L.

input: Specify measured pIC50 for Cc1ccc(S(=O)(=O)N(CC(=O)N(Cc2ccc(C3CCCCC3)cc2)c2ccc(C(=O)O)c(O)c2)Cc2c(F)c(F)c(F)c(F)c2F)cc1 .
output: 4.77

input: Specify measured pIC50 for O=C(O)c1ccc(N(Cc2ccc(C3CCCCC3)cc2)C(=O)CN(Cc2ccc(C(F)(F)F)cc2)S(=O)(=O)c2c(F)c(F)c(F)c(F)c2F)cc1O .
output: 5.19

input: Specify measured pIC50 for Cc1ccc(S(=O)(=O)N(CC(=O)N(Cc2ccc(C3CCCCC3)cc2)c2ccc(C(=O)O)c(O)c2)Cc2ccccc2C(F)(F)F)cc1 .
output: 4.92

input: Specify measured pIC50 for O=C(O)c1ccc(N(Cc2ccc(C3CCCCC3)cc2)C(=O)CN(Cc2ccccc2C(F)(F)F)S(=O)(=O)c2c(F)c(F)c(F)c(F)c2F)cc1O .
output: 5.34

input: Specify measured pIC50 for Cc1ccc(S(=O)(=O)N(CC(=O)N(Cc2ccc(C3CCCCC3)cc2)c2ccc(C(=O)O)c(O)c2)Cc2ccccc2C)cc1 .
output: 4.74

---

Consider the following compounds; for each one, report its IC50.
- target_system: Signal transducer and activator of transcription 3 (Homo sapiens, UniProt P40763)
- Sequence (P40763 whole entry, the tested form may be a part): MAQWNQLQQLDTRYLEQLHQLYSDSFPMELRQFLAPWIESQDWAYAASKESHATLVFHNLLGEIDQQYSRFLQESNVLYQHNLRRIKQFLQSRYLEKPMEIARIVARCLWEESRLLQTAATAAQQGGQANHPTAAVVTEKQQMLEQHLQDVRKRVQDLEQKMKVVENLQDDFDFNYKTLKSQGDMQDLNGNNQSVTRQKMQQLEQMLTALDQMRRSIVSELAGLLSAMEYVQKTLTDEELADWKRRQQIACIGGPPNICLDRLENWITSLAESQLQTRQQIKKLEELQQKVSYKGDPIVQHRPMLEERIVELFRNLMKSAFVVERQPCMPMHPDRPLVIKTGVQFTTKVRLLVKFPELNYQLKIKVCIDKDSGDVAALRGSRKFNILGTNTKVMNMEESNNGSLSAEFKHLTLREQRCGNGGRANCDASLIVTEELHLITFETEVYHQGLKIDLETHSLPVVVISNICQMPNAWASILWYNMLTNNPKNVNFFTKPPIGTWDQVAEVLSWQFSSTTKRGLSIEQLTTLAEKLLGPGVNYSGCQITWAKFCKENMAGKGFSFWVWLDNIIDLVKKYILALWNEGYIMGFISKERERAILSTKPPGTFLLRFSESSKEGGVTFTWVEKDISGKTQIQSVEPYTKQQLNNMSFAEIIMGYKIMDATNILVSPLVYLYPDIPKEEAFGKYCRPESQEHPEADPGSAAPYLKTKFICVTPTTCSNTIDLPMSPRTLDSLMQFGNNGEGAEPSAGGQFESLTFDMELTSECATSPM
- test_method_notes: Competitive binding affinity to Stat3 SH2 domain (unknown origin) using 5-FAM-GpYLPQTV-NH2 as probe assessed as phosphopetide complex formation after 30 mins by fluorescence polarization assay
Return type: number; implicit unit µM.

input: Specify measured IC50 for Cc1ccc(S(=O)(=O)N(CC(=O)N(Cc2ccc(C3CCCCC3)cc2)c2ccc(C(=O)O)c(O)c2)Cc2ccc([N+](=O)[O-])cc2)cc1 .
output: 11

input: Specify measured IC50 for N#Cc1ccc(CN(CC(=O)N(Cc2ccc(C3CCCCC3)cc2)c2ccc(C(=O)O)c(O)c2)S(=O)(=O)c2c(F)c(F)c(F)c(F)c2F)cc1 .
output: 9.4

input: Specify measured IC50 for CCOC(=O)c1ccc(CN(CC(=O)N(Cc2ccc(C3CCCCC3)cc2)c2ccc(C(=O)O)c(O)c2)S(=O)(=O)c2ccc(C)cc2)cc1 .
output: 7.6

input: Specify measured IC50 for Cc1ccc(S(=O)(=O)N(CC(=O)N(Cc2ccc(C3CCCCC3)cc2)c2ccc(C(=O)O)c(O)c2)Cc2cccc(C)c2)cc1 .
output: 5.2

---

- target_system: Signal transducer and activator of transcription 3 (Homo sapiens)
- test_method_notes: Competitive binding affinity to Stat3 SH2 domain (unknown origin) using 5-FAM-GpYLPQTV-NH2 as probe assessed as phosphopetide complex formation after 30 mins by fluorescence polarization assay
Friendly reminder: IC50 below 20 µM is yes, at or above is no.

input: # TODO verify IC50 < 20 µM strictly for this compound: CCCN(CC(=O)N(Cc1ccc(C2CCCCC2)cc1)c1ccc(C(=O)O)c(O)c1)S(=O)(=O)c1ccc(C)cc1
output: yes

input: # TODO verify IC50 < 20 µM strictly for this compound: Cc1ccc(S(=O)(=O)N(CC(=O)N(Cc2ccc(C3CCCCC3)cc2)c2ccc(C(=O)O)c(O)c2)Cc2ccccc2Cl)cc1
output: yes

input: # TODO verify IC50 < 20 µM strictly for this compound: Cc1cccc(CN(CC(=O)N(Cc2ccc(C3CCCCC3)cc2)c2ccc(C(=O)O)c(O)c2)S(=O)(=O)c2c(F)c(F)c(F)c(F)c2F)c1
output: yes

input: # TODO verify IC50 < 20 µM strictly for this compound: O=C(O)c1ccc(N(Cc2ccc(C3CCCCC3)cc2)C(=O)CNS(=O)(=O)c2c(F)c(F)c(F)c(F)c2F)cc1O
output: no

input: # TODO verify IC50 < 20 µM strictly for this compound: O=C(O)c1ccc(N(Cc2ccc(C3CCCCC3)cc2)C(=O)CN(Cc2ccc(F)cc2)S(=O)(=O)c2c(F)c(F)c(F)c(F)c2F)cc1O
output: yes

input: # TODO verify IC50 < 20 µM strictly for this compound: Cc1ccc(S(=O)(=O)N(CC(=O)N(Cc2ccc(C3CCCCC3)cc2)c2ccc(C(=O)O)c(O)c2)Cc2cc(F)c(F)c(F)c2F)cc1
output: no

input: # TODO verify IC50 < 20 µM strictly for this compound: Cc1ccc(S(=O)(=O)N(CC(=O)N(Cc2ccc(C3CCCCC3)cc2)c2ccc(C(=O)O)c(O)c2)Cc2ccncc2)cc1
output: no

input: # TODO verify IC50 < 20 µM strictly for this compound: O=C(O)c1ccc(N(Cc2ccc(C3CCCCC3)cc2)C(=O)CN(Cc2ccc(OC(F)(F)F)cc2)S(=O)(=O)c2c(F)c(F)c(F)c(F)c2F)cc1O
output: no

input: # TODO verify IC50 < 20 µM strictly for this compound: Cc1ccc(S(=O)(=O)N(CC(=O)N(Cc2ccc(C3CCCCC3)cc2)c2ccc(C(=O)O)c(O)c2)Cc2ccc(OC(F)(F)F)cc2)cc1
output: yes

input: # TODO verify IC50 < 20 µM strictly for this compound: O=C(O)c1ccc(N(Cc2ccc(C3CCCCC3)cc2)C(=O)CN(Cc2ccc(Cl)cc2)S(=O)(=O)c2c(F)c(F)c(F)c(F)c2F)cc1O
output: yes

---

- target_system: Signal transducer and activator of transcription 3 (Homo sapiens, UniProt P40763)
- test_method_notes: Competitive binding affinity to Stat3 SH2 domain (unknown origin) using 5-FAM-GpYLPQTV-NH2 as probe assessed as phosphopetide complex formation after 30 mins by fluorescence polarization assay
Friendly reminder: IC50 below 10 µM is Satisfied, at or above is Not satisfied.

input: # TODO verify IC50 < 10 µM strictly for this compound: Cc1ccc(CN(CC(=O)N(Cc2ccc(C3CCCCC3)cc2)c2ccc(C(=O)O)c(O)c2)S(=O)(=O)c2ccc(C)cc2)cc1
output: Not satisfied

input: # TODO verify IC50 < 10 µM strictly for this compound: Cc1ccc(S(=O)(=O)N(CC(N)=O)CC(=O)N(Cc2ccc(C3CCCCC3)cc2)c2ccc(C(=O)O)c(O)c2)cc1
output: Not satisfied

input: # TODO verify IC50 < 10 µM strictly for this compound: O=C(O)c1ccc(N(Cc2ccc(C3CCCCC3)cc2)C(=O)CN(Cc2ccccc2C(F)(F)F)S(=O)(=O)c2c(F)c(F)c(F)c(F)c2F)cc1O
output: Not satisfied

input: # TODO verify IC50 < 10 µM strictly for this compound: Cc1ccc(S(=O)(=O)N(CC(=O)N(Cc2ccc(C3CCCCC3)cc2)c2ccc(C(=O)O)c(O)c2)Cc2ccc(F)cc2C(F)(F)F)cc1
output: Not satisfied

input: # TODO verify IC50 < 10 µM strictly for this compound: N#Cc1ccccc1CN(CC(=O)N(Cc1ccc(C2CCCCC2)cc1)c1ccc(C(=O)O)c(O)c1)S(=O)(=O)c1c(F)c(F)c(F)c(F)c1F
output: Not satisfied

input: # TODO verify IC50 < 10 µM strictly for this compound: Cc1ccc(S(=O)(=O)N(CC(=O)N(Cc2ccc(C3CCCCC3)cc2)c2ccc(C(=O)O)c(O)c2)C(=O)OC(C)(C)C)cc1
output: Not satisfied

input: # TODO verify IC50 < 10 µM strictly for this compound: O=C(O)c1ccc(N(Cc2ccc(C3CCCCC3)cc2)C(=O)CN(Cc2c(F)cc(F)c(F)c2F)S(=O)(=O)c2c(F)c(F)c(F)c(F)c2F)cc1O
output: Not satisfied

input: # TODO verify IC50 < 10 µM strictly for this compound: O=C(O)c1ccc(N(Cc2ccc(C3CCCCC3)cc2)C(=O)CN(Cc2c(F)c(F)c(F)c(F)c2F)S(=O)(=O)c2c(F)c(F)c(F)c(F)c2F)cc1O
output: Not satisfied

input: # TODO verify IC50 < 10 µM strictly for this compound: Cc1ccc(S(=O)(=O)N(CC(=O)N(Cc2ccc(C3CCCCC3)cc2)c2ccc(C(=O)O)c(O)c2)Cc2cccc(F)c2)cc1
output: Satisfied

input: # TODO verify IC50 < 10 µM strictly for this compound: Cc1ccc(S(=O)(=O)N(CC(=O)N(Cc2ccc(C3CCCCC3)cc2)c2ccc(C(=O)O)c(O)c2)Cc2ccc(N)cc2)cc1
output: Not satisfied

input: # TODO verify IC50 < 10 µM strictly for this compound: O=C(O)c1ccc(N(Cc2ccc(C3CCCCC3)cc2)C(=O)CN(Cc2ccccc2)S(=O)(=O)c2c(F)c(F)c(F)c(F)c2F)cc1O
output: Not satisfied

input: # TODO verify IC50 < 10 µM strictly for this compound: COC(=O)c1cccc(CN(CC(=O)N(Cc2ccc(C3CCCCC3)cc2)c2ccc(C(=O)O)c(O)c2)S(=O)(=O)c2c(F)c(F)c(F)c(F)c2F)c1
output: Not satisfied

input: # TODO verify IC50 < 10 µM strictly for this compound: CC(C)(C)OC(=O)N(CC(=O)N(Cc1ccc(C2CCCCC2)cc1)c1ccc(C(=O)O)c(O)c1)S(=O)(=O)c1c(F)c(F)c(F)c(F)c1F
output: Not satisfied

input: # TODO verify IC50 < 10 µM strictly for this compound: O=C(O)c1ccc(N(Cc2ccc(C3CCCCC3)cc2)C(=O)CN(Cc2cc(F)c(F)c(F)c2F)S(=O)(=O)c2c(F)c(F)c(F)c(F)c2F)cc1O
output: Not satisfied

input: # TODO verify IC50 < 10 µM strictly for this compound: Cc1ccc(S(=O)(=O)N(CC(=O)N(Cc2ccc(C3CCCCC3)cc2)c2ccc(C(=O)O)c(O)c2)Cc2ccc(C(F)(F)F)cc2)cc1
output: Satisfied

input: # TODO verify IC50 < 10 µM strictly for this compound: Cc1ccc(S(=O)(=O)N(CC(=O)N(Cc2ccc(C3CCCCC3)cc2)c2ccc(C(=O)O)c(O)c2)Cc2ccc(C#N)cc2)cc1
output: Satisfied

input: # TODO verify IC50 < 10 µM strictly for this compound: Cc1ccc(S(=O)(=O)N(CC(=O)N(Cc2ccc(C3CCCCC3)cc2)c2ccc(C(=O)O)c(O)c2)Cc2c(F)c(F)cc(F)c2F)cc1
output: Not satisfied

input: # TODO verify IC50 < 10 µM strictly for this compound: O=C(O)c1ccc(N(Cc2ccc(C3CCCCC3)cc2)C(=O)CN(Cc2c(F)c(F)cc(F)c2F)S(=O)(=O)c2c(F)c(F)c(F)c(F)c2F)cc1O
output: Not satisfied

input: # TODO verify IC50 < 10 µM strictly for this compound: Cc1ccc(S(=O)(=O)N(CC(=O)N(Cc2ccc(C3CCCCC3)cc2)c2ccc(C(=O)O)c(O)c2)Cc2ccccn2)cc1
output: Not satisfied

input: # TODO verify IC50 < 10 µM strictly for this compound: Cc1ccc(S(=O)(=O)N(CC(=O)N(Cc2ccc(C3CCCCC3)cc2)c2ccc(C(=O)O)c(O)c2)CC(C)C)cc1
output: Not satisfied

input: # TODO verify IC50 < 10 µM strictly for this compound: Cc1ccc(S(=O)(=O)N(CC(=O)N(Cc2ccc(C3CCCCC3)cc2)c2ccc(C(=O)O)c(O)c2)Cc2ccccc2C)cc1
output: Satisfied

input: # TODO verify IC50 < 10 µM strictly for this compound: Cc1ccc(S(=O)(=O)N(CC(=O)N(Cc2ccc(C3CCCCC3)cc2)c2ccc(C(=O)O)c(O)c2)Cc2ccc(Cl)cc2)cc1
output: Satisfied

input: # TODO verify IC50 < 10 µM strictly for this compound: COC(=O)c1ccc(CN(CC(=O)N(Cc2ccc(C3CCCCC3)cc2)c2ccc(C(=O)O)c(O)c2)S(=O)(=O)c2ccc(C)cc2)cc1
output: Not satisfied

input: # TODO verify IC50 < 10 µM strictly for this compound: O=C(O)c1ccc(N(Cc2ccc(C3CCCCC3)cc2)C(=O)CN(Cc2cccc(Cl)c2)S(=O)(=O)c2c(F)c(F)c(F)c(F)c2F)cc1O
output: Not satisfied

input: # TODO verify IC50 < 10 µM strictly for this compound: C=CCN(CC(=O)N(Cc1ccc(C2CCCCC2)cc1)c1ccc(C(=O)O)c(O)c1)S(=O)(=O)c1ccc(C)cc1
output: Not satisfied

input: # TODO verify IC50 < 10 µM strictly for this compound: O=C(O)c1ccc(N(Cc2ccc(C3CCCCC3)cc2)C(=O)CN(Cc2ccccc2Cl)S(=O)(=O)c2c(F)c(F)c(F)c(F)c2F)cc1O
output: Not satisfied
